Provenance of the data: ChEMBL document CHEMBL1137609

Below is a list of entries, each paired with its recorded logD value.
# Experiment Notes: Lipophilicity, log D of the compound
# Format: physicochemical
# Reported Conditions: octanol/water
Assay Readout: logD

• C=C1/C(=C\C=C2/CCC[C@]3(C)[C@@H]([C@H](C)COCc4ccccc4)CC[C@@H]23)C[C@@H](O)C[C@@H]1O = 4.4
• C=C1/C(=C\C=C2/CCC[C@]3(C)[C@@H]([C@H](C)COCC(=C)C(C)(C)C)CC[C@@H]23)C[C@@H](O)C[C@@H]1O = 4.7
• C=C1/C(=C\C=C2/CCC[C@]3(C)[C@@H]([C@H](C)COCc4ccco4)CC[C@@H]23)C[C@@H](O)C[C@@H]1O = 3.3
• C=C1/C(=C\C=C2/CCC[C@]3(C)[C@@H]([C@H](C)CCCC(C)(C)O)CC[C@@H]23)C[C@@H](O)C[C@@H]1O = 3.6
• C=C(COC[C@@H](C)[C@H]1CC[C@H]2/C(=C/C=C3/C[C@@H](O)C[C@H](O)C3=C)CCC[C@]12C)c1ccccc1 = 5.1
• C=C1/C(=C\C=C2/CCC[C@]3(C)[C@@H]([C@H](C)COC/C=C/C(C)(C)C)CC[C@@H]23)C[C@@H](O)C[C@@H]1O = 4.9
• C=C1/C(=C\C=C2/CCC[C@]3(C)[C@@H]([C@H](C)COCC#CC(C)(C)C)CC[C@@H]23)C[C@@H](O)C[C@@H]1O = 4.6
• C=C(COC[C@@H](C)[C@H]1CC[C@H]2/C(=C/C=C3/C[C@@H](O)C[C@H](O)C3=C)CCC[C@]12C)C1=CCCCC1(C)C = 4.9
• C=C1/C(=C\C=C2/CCC[C@]3(C)[C@@H]([C@H](C)COCC(=C)C4(C)CCCCC4)CC[C@@H]23)C[C@@H](O)C[C@@H]1O = 5.3
